# SYSTEM UNDER TEST: Thromboxane A2 receptor (Homo sapiens)
# Sequence (whole entry): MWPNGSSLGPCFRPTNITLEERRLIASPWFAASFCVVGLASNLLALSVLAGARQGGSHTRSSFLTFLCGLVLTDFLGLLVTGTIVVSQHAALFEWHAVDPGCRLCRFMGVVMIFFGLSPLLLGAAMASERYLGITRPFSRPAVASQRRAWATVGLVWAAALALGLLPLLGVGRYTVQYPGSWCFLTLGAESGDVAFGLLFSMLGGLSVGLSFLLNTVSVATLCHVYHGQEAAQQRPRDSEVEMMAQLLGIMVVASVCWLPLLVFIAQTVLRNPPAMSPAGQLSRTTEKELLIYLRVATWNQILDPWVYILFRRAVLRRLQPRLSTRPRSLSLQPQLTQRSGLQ
# TEST SUMMARY: Binding affinity for thromboxane A2 receptor by measuring its ability to displace [3H]U-46619 from guinea pig platelets at 0.1 uM
# EXPERIMENTAL CONTEXT: Cavia porcellus, target entry is the homologue from another species
Outcome label depends on inhibition relative to 70%: at/above gives 1 (yes), below gives 0 (no).

[
  {
    "COMPOUND": "Cc1ccsc1C(=O)NCCSC1c2ccccc2COc2ccc(C(=O)O)cc21 (centres undefined)",
    "CLASS LABEL": "1 (yes)"
  },
  {
    "COMPOUND": "O=C(O)c1ccc2c(c1)C(SCCNS(=O)(=O)c1ccc(Cl)cc1)c1ccccc1CO2 (centres undefined)",
    "CLASS LABEL": "0 (no)"
  },
  {
    "COMPOUND": "O=C(O)c1ccc2c(c1)C(SCCNS(=O)(=O)c1ccc(F)cc1)c1ccccc1CO2 (centres undefined)",
    "CLASS LABEL": "0 (no)"
  },
  {
    "COMPOUND": "O=C(O)c1ccc2c(c1)C(SCCNS(=O)(=O)c1ccccc1)c1ccccc1C=C2 (centres undefined)",
    "CLASS LABEL": "0 (no)"
  },
  {
    "COMPOUND": "O=C(O)c1ccc2c(c1)C(SCC/N=C(\\S)NCc1ccccc1)c1ccccc1CO2 (centres undefined)",
    "CLASS LABEL": "1 (yes)"
  },
  {
    "COMPOUND": "O=C(O)Cc1ccc2c(c1)C(SCCNS(=O)(=O)c1ccccc1)c1ccccc1CO2 (centres undefined)",
    "CLASS LABEL": "0 (no)"
  },
  {
    "COMPOUND": "COc1ccc(OC)c(S(=O)(=O)NCCSC2c3ccccc3COc3ccc(C(=O)O)cc32)c1 (centres undefined)",
    "CLASS LABEL": "0 (no)"
  },
  {
    "COMPOUND": "O=C(O)c1ccc2c(c1)C(SCCNS(=O)(=O)c1ccc([N+](=O)[O-])cc1)c1ccccc1CO2 (centres undefined)",
    "CLASS LABEL": "0 (no)"
  },
  {
    "COMPOUND": "O=C(O)c1ccc2c(c1)C(SCCNS(=O)(=O)c1cccs1)c1ccccc1CO2 (centres undefined)",
    "CLASS LABEL": "1 (yes)"
  },
  {
    "COMPOUND": "Cc1ccc(S(=O)(=O)NCCSC2c3ccccc3COc3ccc(C(=O)O)cc32)cc1 (centres undefined)",
    "CLASS LABEL": "1 (yes)"
  }
]

Asked: Exam item: decide whether the reported inhibition for O=C(O)c1ccc2c(c1)C(SCCNS(=O)(=O)c1ccccc1)c1cc(Br)ccc1CO2 (centres undefined) is at least 70%.
Given back: 1 (yes)

Asked: Form field: inhibition at least 70%? Entry: O=C(O)c1ccc2c(c1)OCc1ccccc1C2SCCNS(=O)(=O)c1ccccc1 (centres undefined)
Given back: 0 (no)
